Reference for the values: patent US20020026053A1

Biochem EGFR % Inhibition (P.167) values by entry
target: EGFR (Homo sapiens); construct: endogenous in cells; host or cells: A431 cells (lysate, captured with SUMO1 anti-EGFR antibody); assay: Biochemical EGFR Assay; set-up: concentration or dose not given beside the values
Sequence (P00533 25-1210): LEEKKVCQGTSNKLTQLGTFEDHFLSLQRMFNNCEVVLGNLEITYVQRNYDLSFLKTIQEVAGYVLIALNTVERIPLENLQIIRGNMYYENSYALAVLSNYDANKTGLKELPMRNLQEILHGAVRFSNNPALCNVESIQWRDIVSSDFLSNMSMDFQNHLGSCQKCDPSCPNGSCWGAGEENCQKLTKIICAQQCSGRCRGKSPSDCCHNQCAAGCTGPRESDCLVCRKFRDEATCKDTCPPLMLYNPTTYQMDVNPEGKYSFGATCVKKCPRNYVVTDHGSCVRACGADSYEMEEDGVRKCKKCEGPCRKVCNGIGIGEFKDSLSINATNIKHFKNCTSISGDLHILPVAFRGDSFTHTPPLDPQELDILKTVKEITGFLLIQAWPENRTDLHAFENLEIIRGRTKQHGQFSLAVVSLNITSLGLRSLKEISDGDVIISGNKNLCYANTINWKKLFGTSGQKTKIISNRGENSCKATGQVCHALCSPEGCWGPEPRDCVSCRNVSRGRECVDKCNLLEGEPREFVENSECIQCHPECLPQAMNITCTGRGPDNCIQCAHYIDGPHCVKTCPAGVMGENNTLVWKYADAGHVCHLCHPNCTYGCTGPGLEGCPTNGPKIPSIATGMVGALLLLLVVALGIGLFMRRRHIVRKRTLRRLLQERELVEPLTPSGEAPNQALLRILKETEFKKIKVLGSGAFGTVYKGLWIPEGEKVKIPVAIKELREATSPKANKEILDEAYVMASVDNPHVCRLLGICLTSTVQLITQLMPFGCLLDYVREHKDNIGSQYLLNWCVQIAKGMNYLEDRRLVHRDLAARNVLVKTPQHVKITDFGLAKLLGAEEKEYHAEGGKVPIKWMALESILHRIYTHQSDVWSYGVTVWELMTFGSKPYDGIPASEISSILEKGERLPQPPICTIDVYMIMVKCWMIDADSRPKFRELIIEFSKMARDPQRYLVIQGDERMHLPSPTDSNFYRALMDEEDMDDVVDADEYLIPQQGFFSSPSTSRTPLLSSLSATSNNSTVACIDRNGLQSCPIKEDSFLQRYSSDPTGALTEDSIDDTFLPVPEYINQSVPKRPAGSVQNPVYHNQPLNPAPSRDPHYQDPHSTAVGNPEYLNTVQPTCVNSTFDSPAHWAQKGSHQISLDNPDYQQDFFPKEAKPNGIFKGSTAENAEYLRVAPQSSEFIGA
Provide only the numeric value, understood in %.

For orientation, consider the following solved cases.
{"compound-string": "CCOc1cccc(C=C2C(=O)Nc3c(Br)cc(Br)cc32)c1O", "obs-value": 0.0}
{"compound-string": "CCOC(=O)c1cc(C=C2C(=O)Nc3c(Br)cc(Br)c(C)c32)oc1C", "obs-value": "−5.1"}
{"compound-string": "CNS(=O)(=O)c1ccc2c(c1)C(=Cc1cccc(F)c1)C(=O)N2", "obs-value": 47.1}

Return Biochem EGFR % Inhibition (P.167) for the following compound: CCc1ccc(C=C2C(=O)Nc3c(Br)cc(Br)cc32)cc1 20.0

Return Biochem EGFR % Inhibition (P.167) for the following compound: O=C1Nc2c(Br)cc(Br)cc2C1=Cc1ccc(-c2ccccc2)cc1 3.3

====

PDGF Kinase % Inhibition (P.119) values by entry
System: PDGF-R
Test: PDGF-R Assay (cellular ELISA, U1242 cells)
Type: cell-based
Parameters: concentration or dose not given beside the values
Conditions: protocol P.119
Description: The cellular/catalytic assays described herein are performed in an ELISA format. […] Non-substrate components of the cell lysate are washed away and the amount of phosphorylation on the substrate is detected with an antibody specifically recognizing phosphotyrosine compared with control cells that were not contacted with a test compound. […]
Provide only the numeric value, understood in %.

{"compound": "O=C1Nc2ccc(S(=O)(=O)N3CCOCC3)cc2C1=Cc1cc(F)ccc1F", "endpoint-unit": "%", "obs-value": 3.8}
{"compound": "Cc1c(Br)cc(Br)c2c1C(=Cc1cccc(Oc3ccc(C(C)(C)C)cc3)c1)C(=O)N2", "endpoint-unit": "%", "obs-value": "−12.9"}
{"compound": "Cc1c(Br)cc(Br)c2c1C(=Cc1cccc(OCc3ccccc3)c1)C(=O)N2", "endpoint-unit": "%", "obs-value": "−19.5"}
{"compound": "COc1ccc(C=C2C(=O)Nc3c(Br)cc(Br)cc32)cc1F", "endpoint-unit": "%", "obs-value": 15.7}
{"compound": "Cc1c(Br)ccc2c1C(=CC1COc3ccccc3O1)C(=O)N2 (stereo not drawn)", "endpoint-unit": "%", "obs-value": 31.4}

Report PDGF Kinase % Inhibition (P.119) from PDGF-R testing of CC(C)(C)c1ccc(Oc2cccc(C=C3C(=O)Nc4ccc(S(=O)(=O)Nc5ccc(C(F)(F)F)cc5)cc43)c2)cc1 30.9

Report PDGF Kinase % Inhibition (P.119) from PDGF-R testing of O=C1Nc2ccc(CCCl)cc2C1=Cc1ccc(O)cc1Cl −6.4

Report PDGF Kinase % Inhibition (P.119) from PDGF-R testing of COc1ccc(Oc2cccc(C=C3C(=O)Nc4c(Br)cc(Br)cc43)c2)cc1 3.8

Report PDGF Kinase % Inhibition (P.119) from PDGF-R testing of O=C1Nc2ccc(I)cc2C1=Cc1ccc(CO)o1 −9.8

Report PDGF Kinase % Inhibition (P.119) from PDGF-R testing of O=C1Nc2ccc(S(=O)(=O)Nc3ccc(C(F)(F)F)cc3)cc2C1=Cc1cccc(F)c1F 33.3

Report PDGF Kinase % Inhibition (P.119) from PDGF-R testing of O=C1Nc2ccc(I)cc2C1=Cc1cccc(Oc2cccc(C(F)(F)F)c2)c1 −10.2

Report PDGF Kinase % Inhibition (P.119) from PDGF-R testing of CC(C)(C)c1ccc(Oc2cccc(C=C3C(=O)Nc4c(Br)cc(Br)cc43)c2)cc1 −3.8

Report PDGF Kinase % Inhibition (P.119) from PDGF-R testing of Cc1c(Br)cc(Br)c2c1C(=Cc1cccc(Oc3cccc(C(F)(F)F)c3)c1)C(=O)N2 −16.5

Report PDGF Kinase % Inhibition (P.119) from PDGF-R testing of Cc1c(Br)ccc2c1C(=Cc1ccc(OCCCN(C)C)cc1)C(=O)N2 105.6

Report PDGF Kinase % Inhibition (P.119) from PDGF-R testing of Cc1c(Br)ccc2c1C(=Cc1ccc(OCc3ccccc3)cc1)C(=O)N2 19.3

Report PDGF Kinase % Inhibition (P.119) from PDGF-R testing of CCOc1ccc(C=C2C(=O)Nc3ccc(CCCl)cc32)cc1 −5.8

Report PDGF Kinase % Inhibition (P.119) from PDGF-R testing of Cc1c(Br)ccc2c1C(=Cc1cccc(OCc3ccccc3)c1)C(=O)N2 10.1

Report PDGF Kinase % Inhibition (P.119) from PDGF-R testing of O=C1Nc2ccc(S(=O)(=O)N3CCOCC3)cc2C1=Cc1cc(O)c(O)c(O)c1 23.7

====

target: Met receptor (EGFR/Met chimeric cells, EMR) (Homo sapiens, UniProt P08581); construct: expressed in transfected cells; the other entry of the earlier key: EGFR (P00533, Epidermal growth factor receptor); test: Met Autophosphorylation Assay; type: biochemical; settings: protocol P.130
Sequence (P08581 with tags, fused parts or gaps): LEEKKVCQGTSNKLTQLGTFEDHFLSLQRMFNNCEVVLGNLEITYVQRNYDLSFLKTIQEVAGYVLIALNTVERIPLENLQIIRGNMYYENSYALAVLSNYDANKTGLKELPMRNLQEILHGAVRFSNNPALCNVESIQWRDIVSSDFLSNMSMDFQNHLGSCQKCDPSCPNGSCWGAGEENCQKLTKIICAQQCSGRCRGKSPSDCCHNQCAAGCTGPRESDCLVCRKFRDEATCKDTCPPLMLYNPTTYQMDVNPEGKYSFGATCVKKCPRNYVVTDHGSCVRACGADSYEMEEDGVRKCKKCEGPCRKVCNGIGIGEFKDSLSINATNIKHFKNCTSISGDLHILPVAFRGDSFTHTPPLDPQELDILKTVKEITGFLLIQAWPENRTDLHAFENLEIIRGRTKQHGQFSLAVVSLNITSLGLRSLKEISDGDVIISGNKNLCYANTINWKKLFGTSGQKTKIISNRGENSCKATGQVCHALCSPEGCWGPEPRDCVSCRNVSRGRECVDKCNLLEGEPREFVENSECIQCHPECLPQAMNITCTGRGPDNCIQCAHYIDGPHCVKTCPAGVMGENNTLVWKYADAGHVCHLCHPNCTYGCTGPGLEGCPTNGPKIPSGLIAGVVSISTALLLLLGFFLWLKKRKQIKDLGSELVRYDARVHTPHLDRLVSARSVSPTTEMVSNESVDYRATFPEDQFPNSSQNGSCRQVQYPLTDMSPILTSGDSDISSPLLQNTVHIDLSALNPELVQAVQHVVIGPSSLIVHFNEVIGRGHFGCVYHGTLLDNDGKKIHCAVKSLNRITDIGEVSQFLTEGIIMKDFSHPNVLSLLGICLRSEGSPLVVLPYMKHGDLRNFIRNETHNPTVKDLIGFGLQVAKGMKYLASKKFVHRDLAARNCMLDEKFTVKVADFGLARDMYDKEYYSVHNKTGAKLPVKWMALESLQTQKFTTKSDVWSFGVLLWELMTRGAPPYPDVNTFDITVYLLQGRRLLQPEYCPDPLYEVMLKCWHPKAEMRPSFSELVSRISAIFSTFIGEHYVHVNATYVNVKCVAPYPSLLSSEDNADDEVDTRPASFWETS
Met Kinase % Inhibition (P.130) values by entry
Provide only the numeric value, understood in %.

{"molecule": "CC(C)(C)c1ccc(Oc2cccc(C=C3C(=O)Nc4ccc(I)cc43)c2)cc1 [10737/B10]", "Met Kinase % Inhibition (P.130), %": 84.7}

Report Met Kinase % Inhibition (P.130) from Met receptor (EGFR/Met chimeric cells, EMR) (Homo sapiens, UniProt P08581) testing of Cc1c(Br)cc(Br)c2c1C(=Cc1ccc(OCc3ccccc3)cc1)C(=O)N2 [10739/H04] −2.7

Report Met Kinase % Inhibition (P.130) from Met receptor (EGFR/Met chimeric cells, EMR) (Homo sapiens, UniProt P08581) testing of Cc1c(Br)cc(Br)c2c1C(=Cc1cnc3ccccc3c1)C(=O)N2 [10740/H02] 28.7

Report Met Kinase % Inhibition (P.130) from Met receptor (EGFR/Met chimeric cells, EMR) (Homo sapiens, UniProt P08581) testing of CN(C)CCCOc1ccc(C=C2C(=O)Nc3c(Br)cc(Br)cc32)cc1 [10739/A09] 60.4

Report Met Kinase % Inhibition (P.130) from Met receptor (EGFR/Met chimeric cells, EMR) (Homo sapiens, UniProt P08581) testing of O=C1Nc2ccc(S(=O)(=O)N3CCOCC3)cc2C1=Cc1ccc(CO)o1 [10739/F11] 40.9

====

test system: FLK-1 receptor; test: FLK-1 Assay (cellular/catalytic ELISA, VEGF-stimulated phosphotyrosine); assay type: cell-based; design: concentration or dose not given beside the values; conditions: protocol P.110
measured-metric: Flk Kinase % Inhibition (P.110) (%)
Provide only the numeric value, understood in %.

{"molecule": "CNS(=O)(=O)c1ccc2c(c1)C(=Cc1ccc(Cl)c(Cl)c1)C(=O)N2 [10738/D08]", "Flk Kinase % Inhibition (P.110) (%)": 11.9}

Report Flk Kinase % Inhibition (P.110) from FLK-1 receptor testing of CCCCOc1ccc(C=C2C(=O)Nc3ccc(CCCl)cc32)cc1 [10740/G11] 3.3

Report Flk Kinase % Inhibition (P.110) from FLK-1 receptor testing of CCCOc1ccc(C=C2C(=O)Nc3ccc(CCCl)cc32)cc1 [10738/G11] −8.1

Report Flk Kinase % Inhibition (P.110) from FLK-1 receptor testing of Cc1c(Br)ccc2c1C(=Cc1cc(F)ccc1F)C(=O)N2 [10737/C04] −20.1

Report Flk Kinase % Inhibition (P.110) from FLK-1 receptor testing of CNS(=O)(=O)c1ccc2c(c1)C(=Cc1ccnc3ccccc13)C(=O)N2 [10740/D03] 15.1

====

test system: FLK-1 receptor; experiment: FLK-1 Assay (cellular/catalytic ELISA, VEGF-stimulated phosphotyrosine); format: cell-based; design: concentration or dose not given beside the values; conditions: protocol P.110
measured-metric: Flk Kinase % Inhibition (P.110) (%)
Provide only the numeric value, understood in %.

For orientation, consider the following solved cases.
{"compound": "Cc1ccc(C=C2C(=O)Nc3c(Br)cc(Br)c(C)c32)c(C)c1 [10737/H03]", "Flk Kinase % Inhibition (P.110) / %": 3.2}
{"compound": "O=C1Nc2ccc(S(=O)(=O)Nc3ccc(C(F)(F)F)cc3)cc2C1=Cc1ccc2ccccc2n1 [10740/E06]", "Flk Kinase % Inhibition (P.110) / %": "−8.4"}
{"compound": "O=C1Nc2ccc(CCCl)cc2C1=Cc1ccc(Cl)c(Cl)c1 [10738/G08]", "Flk Kinase % Inhibition (P.110) / %": "−15.2"}

Return Flk Kinase % Inhibition (P.110) for the following compound: O=C1Nc2ccc(CCCl)cc2C1=Cc1cc(O)c(O)c(O)c1 [10739/G07] −4.9

Return Flk Kinase % Inhibition (P.110) for the following compound: Cc1c(Br)ccc2c1C(=Cc1ccc(O)cc1Cl)C(=O)N2 [10739/C06] 17.7

Return Flk Kinase % Inhibition (P.110) for the following compound: O=C1Nc2c(Br)cc(Br)cc2C1=Cc1ccc2ccccc2c1 [10737/A08] 4.9

Return Flk Kinase % Inhibition (P.110) for the following compound: O=C1Nc2ccc(S(=O)(=O)Nc3ccc(C(F)(F)F)cc3)cc2C1=CC1COc2ccccc2O1 (stereo not shown) [10739/E05] 28.0

Return Flk Kinase % Inhibition (P.110) for the following compound: O=C1Nc2ccc(I)cc2C1=Cc1cc(O)cc(O)c1 [10738/B07] −22.7
